MEASUREMENT TARGET: Alpha-1A adrenergic receptor (Rattus norvegicus)
Sequence (P43140 whole entry): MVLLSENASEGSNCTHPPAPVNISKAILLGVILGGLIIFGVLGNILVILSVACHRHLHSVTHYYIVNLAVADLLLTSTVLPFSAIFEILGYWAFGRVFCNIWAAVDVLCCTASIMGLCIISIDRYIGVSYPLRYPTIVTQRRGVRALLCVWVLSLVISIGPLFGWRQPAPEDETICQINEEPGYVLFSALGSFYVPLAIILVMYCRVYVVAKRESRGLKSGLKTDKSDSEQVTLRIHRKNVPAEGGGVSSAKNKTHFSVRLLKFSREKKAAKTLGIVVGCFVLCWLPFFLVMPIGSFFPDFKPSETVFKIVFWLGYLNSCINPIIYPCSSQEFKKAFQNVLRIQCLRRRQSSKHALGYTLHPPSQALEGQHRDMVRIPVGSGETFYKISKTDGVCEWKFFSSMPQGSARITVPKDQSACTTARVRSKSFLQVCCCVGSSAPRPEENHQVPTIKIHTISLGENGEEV
RECORDED METRIC: pKi
Notebook: values listed as pKi are -log10 of the concentration (mol/L).

Recorded results for 3 compounds are shown here.
* COC(=O)Nc1c(O)ccc2c1CCCC2C1=NCCN1 (stereo not drawn) | 6.54
* Nc1cccc2c1CCCC2c1c[nH]cn1 (stereo not drawn) | 6.90
* NC(=O)Nc1c(O)ccc2c1CCCC2C1=NCCN1 (stereo not drawn) | 5.15

INPUT: Entry CCS(=O)(=O)Nc1c(O)ccc2c1CCCC2C1=NCCN1 (stereo not drawn) : reported pKi = ?
OUTPUT: 7.22

INPUT: Entry "CCS(=O)(=O)Nc1cccc2c1CCC[C@H]2c1c[nH]cn1" : reported pKi = ?
OUTPUT: 7.33

* * *

Form: system (Alpha-1A adrenergic receptor (Rattus norvegicus)), quantity (Ki), values below.

Recorded results for 2 molecules are shown here.
- Cn1cncc1C1CCCc2c(NS(C)(=O)=O)cccc21 (stereo not drawn): > 10 µM
- O=S(=O)(Nc1c(O)ccc2c1CCCC2C1=NCCN1)c1ccccc1 (stereo not drawn): > 3.16 µM

INPUT: Entry O=S(=O)(Nc1c(O)ccc2c1CCCC2C1=NCCN1)C(F)(F)F (stereo not drawn) : reported Ki = ?
OUTPUT: > 3.16 µM
